Subject of test: Histone deacetylase 8 (Homo sapiens, UniProt Q9BY41)
Sequence (Q9BY41 whole entry): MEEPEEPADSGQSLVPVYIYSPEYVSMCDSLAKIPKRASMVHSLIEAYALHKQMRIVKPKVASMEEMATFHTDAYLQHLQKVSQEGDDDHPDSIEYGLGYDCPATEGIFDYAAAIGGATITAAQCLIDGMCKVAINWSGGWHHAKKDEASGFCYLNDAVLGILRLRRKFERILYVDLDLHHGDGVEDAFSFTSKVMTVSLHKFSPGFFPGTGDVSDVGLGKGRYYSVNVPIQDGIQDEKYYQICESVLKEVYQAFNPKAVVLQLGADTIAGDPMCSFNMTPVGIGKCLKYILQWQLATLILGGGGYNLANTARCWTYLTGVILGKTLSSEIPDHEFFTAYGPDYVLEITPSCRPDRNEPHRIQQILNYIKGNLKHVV
Protocol details: Inhibition of recombinant HDAC8 (unknown origin) expressed in Escherichia coli BL21 using MAL as substrate incubated for 15 mins prior to substrate addition measured after 60 mins by fluorescence plate reader analysis
Property measured: pIC50
pIC50 here is simply -log10 of the concentration when that concentration is written in mol/L.

>  <Compound>
Nc1ccccc1NC(=O)c1ccc(CNC2=N[C@H](c3ccccc3)[C@@H](c3ccccc3)S2)cc1

>  <Quantitative readout>
4.83

$$$$

Query :: Provide pIC50 value for the following compound: Nc1ccccc1NC(=O)c1ccc(CSC2=N[C@@H](c3ccccc3)CS2)cc1
Result :: 5.29

Query :: Provide pIC50 value for the following compound: Nc1ccccc1NC(=O)c1ccc(CNC2=NC[C@@H](c3ccccc3)S2)cc1
Result :: 5.85

Query :: Provide pIC50 value for the following compound: CC(C)(C)OC(=O)N1C(NCc2ccc(C(=O)Nc3ccccc3N)cc2)=NC(=O)C1Cc1c[nH]c2ccccc12 (racemic)
Result :: 4.57

Query :: Provide pIC50 value for the following compound: Nc1ccccc1NC(=O)c1ccc(CNC2=N[C@@H](Cc3ccccc3)CS2)cc1
Result :: 4.46

Query :: Provide pIC50 value for the following compound: CC(=O)N1C(NCc2ccc(C(=O)Nc3ccccc3N)cc2)=NC(=O)C1Cc1ccccc1 (racemic)
Result :: 4.64

Query :: Provide pIC50 value for the following compound: Nc1ccccc1NC(=O)c1ccc(CNC2=N[C@@H](c3ccccc3)CS2)cc1
Result :: 5.39

Query :: Provide pIC50 value for the following compound: Nc1ccccc1NC(=O)c1ccc(CN=C2N[C@H](Cc3ccccc3)CS2)cc1
Result :: 4.90

###

Protocol details: Lipophilicity, log D of the compound at pH 7.4
Format: physicochemical
Condition info: buffer
Property measured: logD
# respond with the number and nothing more

Query :: Provide logD value for the following molecule: Nc1ccccc1NC(=O)c1ccc(CNC2=N[C@@H](c3ccccc3)CS2)cc1
Result :: 4.24

###

Subject of test: Histone deacetylase 2 (Homo sapiens, UniProt Q92769)
Sequence (Q92769 whole entry): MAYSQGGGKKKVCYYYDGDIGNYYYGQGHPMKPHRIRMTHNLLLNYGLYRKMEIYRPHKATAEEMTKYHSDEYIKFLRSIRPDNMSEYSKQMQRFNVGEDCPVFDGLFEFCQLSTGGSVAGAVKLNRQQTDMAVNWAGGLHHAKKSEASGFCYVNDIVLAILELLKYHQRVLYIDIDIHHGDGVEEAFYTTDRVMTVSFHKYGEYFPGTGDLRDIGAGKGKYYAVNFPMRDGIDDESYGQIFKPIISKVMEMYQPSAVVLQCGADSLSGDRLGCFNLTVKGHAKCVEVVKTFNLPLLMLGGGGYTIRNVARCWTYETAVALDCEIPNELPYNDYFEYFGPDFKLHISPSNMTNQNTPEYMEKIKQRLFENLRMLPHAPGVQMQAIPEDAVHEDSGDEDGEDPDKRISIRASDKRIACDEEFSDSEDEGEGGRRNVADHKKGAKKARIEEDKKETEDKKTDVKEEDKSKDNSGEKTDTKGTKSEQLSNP
Protocol details: Inhibition of recombinant His-tagged HDAC2 (1 to 488) (unknown origin) using MAL as substrate incubated for 3 hrs prior to substrate addition measured after 60 mins by fluorescence plate reader analysis
// reported pIC50 per item
pIC50 here is simply -log10 of the concentration when that concentration is written in mol/L.

Worked examples follow.
>  <Molecule>
Nc1ccccc1NC(=O)c1ccc(CNC2=N[C@@H](Cc3ccccc3)CS2)cc1

>  <pIC50>
6.98

$$$$
>  <Molecule>
Nc1ccccc1NC(=O)c1ccc(CN=C2N[C@H](Cc3ccccc3)CS2)cc1

>  <pIC50>
7.09

$$$$
>  <Molecule>
Nc1ccccc1NC(=O)c1ccc(CNC2=N[C@H](c3ccccc3)[C@@H](c3ccccc3)S2)cc1

>  <pIC50>
6.37

$$$$

Next molecule, please.
Query :: Provide pIC50 value for the following molecule: CC(=O)N1C(NCc2ccc(C(=O)Nc3ccccc3N)cc2)=NC(=O)C1Cc1ccccc1 (racemic)
Result :: 6.59

###

Protocol details: Octanol-water partition coefficient, log p of the compound
Type: physicochemical
Property measured: logP
# respond with the number and nothing more

Query :: Provide logP value for the following compound: Nc1ccccc1NC(=O)c1ccc(CNC2=N[C@@H](c3ccccc3)CS2)cc1
Result :: 4.65

src = ChEMBL document CHEMBL2407081
